target: SLC35G3 (Homo sapiens, UniProt Q8N808)
Sequence (Q8N808 whole entry): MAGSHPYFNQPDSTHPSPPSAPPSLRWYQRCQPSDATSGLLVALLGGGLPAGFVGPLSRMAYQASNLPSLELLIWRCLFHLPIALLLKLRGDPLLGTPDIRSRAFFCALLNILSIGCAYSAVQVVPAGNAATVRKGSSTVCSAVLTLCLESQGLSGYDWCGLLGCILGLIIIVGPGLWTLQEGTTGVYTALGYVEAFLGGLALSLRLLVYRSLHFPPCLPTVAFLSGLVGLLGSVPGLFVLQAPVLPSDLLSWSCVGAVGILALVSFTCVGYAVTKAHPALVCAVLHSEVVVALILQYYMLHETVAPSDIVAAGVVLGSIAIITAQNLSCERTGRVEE
assayText: Uptake ratio screen, SLC35G3-overexpressing HEK293 over empty vector cells
Assay type: cell-based
Parameters: by amplifying the entire gene-of-interest within the HEK293 genome via a long-range PCR
experimentalContext: 2.5 μM substrate, 2 min, HEK293
measurementType: Uptake data for SLC35G3, mean value (fold-increase over empty vector control)

Worked cases, answers included:
- CNCC[C@@H](Oc1ccccc1C)c1ccccc1: 1.26
- COc1c(N2C[C@@H]3CCCN[C@@H]3C2)c(F)cc2c(=O)c(C(=O)O)cn(C3CC3)c12: 1.34
- COc1ccc(C(CN(C)C)C2(O)CCCCC2)cc1 (stereo not drawn): 1.60

Lab note: measured Uptake data for SLC35G3, mean value (fold-increase over empty vector control) of `OCCOCCN1CCN(C2=Nc3ccccc3Sc3ccccc32)CC1` was 1.37

----------
target: SLC35F4 (Homo sapiens, UniProt A4IF30)
Sequence (A4IF30 whole entry): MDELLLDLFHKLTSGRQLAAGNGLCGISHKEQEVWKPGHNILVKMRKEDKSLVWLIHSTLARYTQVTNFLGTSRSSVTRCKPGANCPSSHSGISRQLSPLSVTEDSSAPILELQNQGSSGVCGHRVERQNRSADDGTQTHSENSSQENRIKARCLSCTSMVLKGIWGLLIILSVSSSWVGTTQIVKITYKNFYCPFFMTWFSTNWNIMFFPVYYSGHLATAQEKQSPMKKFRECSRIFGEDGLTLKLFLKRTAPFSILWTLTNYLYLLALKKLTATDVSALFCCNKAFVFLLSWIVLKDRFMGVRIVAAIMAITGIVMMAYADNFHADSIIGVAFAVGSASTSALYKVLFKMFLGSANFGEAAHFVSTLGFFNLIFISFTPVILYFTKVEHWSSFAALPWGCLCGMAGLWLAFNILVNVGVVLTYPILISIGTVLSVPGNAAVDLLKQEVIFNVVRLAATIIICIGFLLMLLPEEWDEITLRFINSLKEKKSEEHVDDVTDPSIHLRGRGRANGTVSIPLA
assayText: Uptake ratio screen, SLC35F4-overexpressing HEK293 over empty vector cells
Format: cell-based
Parameters: by amplifying the entire gene-of-interest within the HEK293 genome via a long-range PCR
experimentalContext: 2.5 μM, 2 min
measurementType: Uptake by SLC35F4 (in words)

- C[N+](C)(C)CCO: enhanced cell uptake
- COC(=O)C(c1ccccc1)C1CCCCN1 (stereo not shown) [Methylphenidate]: enhanced cell uptake
- COC(=O)[C@H]1[C@@H](OC(=O)c2ccccc2)C[C@@H]2CC[C@H]1N2C: enhanced cell uptake

----------
target: UniProt:Q8N808
assayText: Uptake ratio screen, SLC35G3-overexpressing HEK293 over empty vector cells
Format: cell-based
Set-up: by amplifying the entire gene-of-interest within the HEK293 genome via a long-range PCR
experimentalContext: 2.5 μM substrate, 2 min, HEK293
measurementType: Uptake data for SLC35G3, mean value (fold-increase over empty vector control)
The reply should be a number, written without any unit.

Worked cases, answers included:
- COc1ccc2c3c1O[C@H]1C[C@@H](O)C=C[C@@]31CCN(C)C2: 1.57
- CN(C)CCc1c[nH]c2ccc(C[C@H]3COC(=O)N3)cc12: 1.27
- CCN(C)C(=O)Oc1cccc([C@H](C)N(C)C)c1: 1.65
- NCCc1ccc(O)cc1: 1.61

# next compound below
Lab note: measured Uptake data for SLC35G3, mean value (fold-increase over empty vector control) of `COc1ccccc1N1CCN(CCCNc2cc(=O)n(C)c(=O)n2C)CC1` was 1.37

----------
target: SLC35G3 (Homo sapiens, UniProt Q8N808)
assayText: Uptake ratio screen, SLC35G3-overexpressing HEK293 over empty vector cells
Format: cell-based
Parameters: by amplifying the entire gene-of-interest within the HEK293 genome via a long-range PCR
experimentalContext: 2.5 μM substrate, 2 min, HEK293
measurementType: Uptake data for SLC35G3, mean value (fold-increase over empty vector control)
The reply should be a number, written without any unit.

Worked cases, answers included:
• N[C@@H]1C[C@H]1c1ccccc1 (racemic) = 2.56
• N[C@@H]1CON=C1O [Cycloserine (D-), Cycloserine] = 0.93
• CCOc1ccccc1OCCN[C@H](C)Cc1ccc(OC)c(S(N)(=O)=O)c1 = 1.39
• O=C1CCc2ccc(OCCCCN3CCN(c4cccc(Cl)c4Cl)CC3)cc2N1 = 1.22
• C[C@H]1c2cccc(O)c2C(=O)C2=C(O)[C@]3(O)C(=O)C(C(N)=O)=C(O)[C@@H](N(C)C)[C@@H]3[C@@H](O)[C@@H]21 = 1.34

Lab note: measured Uptake data for SLC35G3, mean value (fold-increase over empty vector control) of `Nc1nc2c(ncn2COCCO)c(=O)[nH]1` was 1.21

Lab note: measured Uptake data for SLC35G3, mean value (fold-increase over empty vector control) of `C=C1CC[C@@]2(O)[C@H]3Cc4ccc(O)c5c4[C@@]2(CCN3CC2CC2)[C@H]1O5` was 1.99

Lab note: measured Uptake data for SLC35G3, mean value (fold-increase over empty vector control) of CC(N)Cc1ccccc1 (stereo not drawn) was 1.28

Lab note: measured Uptake data for SLC35G3, mean value (fold-increase over empty vector control) of `CCCCNc1ccc(C(=O)OCCN(C)C)cc1` was 1.54

----------
target: UniProt Q8N808
assayText: Uptake ratio screen, SLC35G3-overexpressing HEK293 over empty vector cells
Format: cell-based
Set-up: by amplifying the entire gene-of-interest within the HEK293 genome via a long-range PCR
Listing: Uptake data for SLC35G3, mean value (fold-increase over empty vector control) of selected molecules

Worked cases, answers included:
* C[C@H](N)[C@@H](O)c1ccccc1 [Cathine ((+)-Norpseudoephedrine), (+)-Norpseudoephedrine] | 1.21
* CNC1(c2ccccc2Cl)CCCCC1=O (centres unmarked) [Ketamine] | 1.28
* COc1cc(CCN)cc(OC)c1OC [Mescaline] | 1.34
* CNC(C)Cc1ccc2c(c1)OCO2 (centres unmarked) [MDMA, 3,4-methylenedioxymethamphetamine] | 1.58

# next molecule below
Lab note: measured Uptake data for SLC35G3, mean value (fold-increase over empty vector control) of CNCC[C@H](Oc1cccc2ccccc12)c1cccs1 [Duloxetine] was 1.26

----------
Listing: Uptake data for SLC35G3, mean value (fold-increase over empty vector control) of selected compounds
target: SLC35G3 (Homo sapiens)
assayText: Uptake ratio screen, SLC35G3-overexpressing HEK293 over empty vector cells
Type: cell-based
Parameters: by amplifying the entire gene-of-interest within the HEK293 genome via a long-range PCR
experimentalContext: 2.5 μM substrate, 2 min, HEK293
The reply should be a number, written without any unit.

Lab note: measured Uptake data for SLC35G3, mean value (fold-increase over empty vector control) of OC(CCN1CCCCC1)(c1ccccc1)C1CC2C=CC1C2 (stereo not shown) was 1.50

Lab note: measured Uptake data for SLC35G3, mean value (fold-increase over empty vector control) of CCN(CC)C(=O)C1(c2ccccc2)CC1CN (stereo not shown) was 1.31

Lab note: measured Uptake data for SLC35G3, mean value (fold-increase over empty vector control) of `CCCN1CCCC[C@H]1C(=O)Nc1c(C)cccc1C` was 3.07

Lab note: measured Uptake data for SLC35G3, mean value (fold-increase over empty vector control) of C[N+](C)(C)CC(O)CC(=O)[O-] (stereo not shown) was 1.05

----------
Listing: Uptake data for SLC35G3, mean value (fold-increase over empty vector control) of selected molecules
target: SLC35G3 (Homo sapiens, UniProt Q8N808)
assayText: Uptake ratio screen, SLC35G3-overexpressing HEK293 over empty vector cells
Assay type: cell-based
Parameters: by amplifying the entire gene-of-interest within the HEK293 genome via a long-range PCR
experimentalContext: 2.5 μM substrate, 2 min, HEK293
Peptide text beside a SMILES is read from it.
The reply should be a number, written without any unit.

• CNCC(c1ccc(OC)cc1)C1(O)CCCCC1 (stereo not shown) = 1.20
• CCN1CCCC1CNC(=O)c1cc(S(=O)(=O)CC)c(N)cc1OC (stereo not shown) [Amisulpride] = 1.53
• COc1cc(Cc2cnc(N)nc2N)cc(OC)c1OC = 1.24
• Cc1ncc(C[n+]2csc(CCO)c2C)c(N)n1 = 0.90
• Fc1ccc([C@@H]2CCNC[C@H]2COc2ccc3c(c2)OCO3)cc1 = 1.30
• O=C(O[C@H]1CN2CCC1CC2)N1CCc2ccccc2[C@@H]1c1ccccc1 = 1.26
• COC(=O)[C@H](Cc1ccccc1)NC(=O)[C@@H](N)CC(=O)O [Aspartame] (H-Asp-Phe-OMe) = 0.92
• O=C1c2cccc3c2[C@H](CCC3)CN1[C@@H]1CN2CCC1CC2 = 1.36

Lab note: measured Uptake data for SLC35G3, mean value (fold-increase over empty vector control) of `CN[C@@H](C)[C@H](O)c1ccccc1` was 1.59

Lab note: measured Uptake data for SLC35G3, mean value (fold-increase over empty vector control) of `NCC1(CC(=O)O)CCCCC1` was 0.90

----------
target: SLC35G3 (Homo sapiens)
assayText: Uptake ratio screen, SLC35G3-overexpressing HEK293 over empty vector cells
Assay type: cell-based
Set-up: by amplifying the entire gene-of-interest within the HEK293 genome via a long-range PCR
experimentalContext: 2.5 μM substrate, 2 min, HEK293
Listing: Uptake data for SLC35G3, mean value (fold-increase over empty vector control) of selected compounds
The reply should be a number, written without any unit.

Worked cases, answers included:
- COC(=O)[C@H]1[C@@H](OC(=O)c2ccccc2)C[C@@H]2CC[C@H]1N2C: 2.02
- COc1ccc2c(c1)N(C[C@H](C)CN(C)C)c1ccccc1S2: 1.30

Lab note: measured Uptake data for SLC35G3, mean value (fold-increase over empty vector control) of CC12CC3CC(C)(C1)CC(N)(C3)C2 [Memantine] was 1.19

Lab note: measured Uptake data for SLC35G3, mean value (fold-increase over empty vector control) of `O=C(CCCN1CCC(O)(c2ccc(Cl)cc2)CC1)c1ccc(F)cc1` was 1.47

Lab note: measured Uptake data for SLC35G3, mean value (fold-increase over empty vector control) of COc1ccc2c3c1O[C@H]1C(=O)CC[C@H]4[C@@H](C2)N(C)CC[C@]314 [Hydrocodone] was 1.71

Lab note: measured Uptake data for SLC35G3, mean value (fold-increase over empty vector control) of CC(C)NCC(O)COc1cccc2ccccc12 (stereo not drawn) was 1.27

Lab note: measured Uptake data for SLC35G3, mean value (fold-increase over empty vector control) of `CNCCCN1c2ccccc2CCc2ccccc21` was 1.31

Lab note: measured Uptake data for SLC35G3, mean value (fold-increase over empty vector control) of `Cc1nc2n(c(=O)c1CCN1CCC(c3noc4cc(F)ccc34)CC1)CCCC2` was 1.41

Lab note: measured Uptake data for SLC35G3, mean value (fold-increase over empty vector control) of CN[C@@H]1CCc2[nH]c3ccc(C(N)=O)cc3c2C1 [Frovatriptan (R-), Frovatriptan] was 1.06
